- TESTED_TARGET: UniProtKB P17612
- TEST_DESCRIPTION: Kinase panel profiling at 1 µmol/L (MSA or IMAP), percentage inhibition
- Type: biochemical
- EXPERIMENTAL_SETUP: kinase PKACα; 1 µmol/L single concentration; read-out: %-inhibition at 1 µmol/L, PKACα
Quick reference: inhibition at 1 µM of the listed items.
READOUT: inhibition at 1 µM (%)

compound="C=CC(=O)N1CCC([C@@H]2CCNc3c(C(N)=O)c(-c4ccc(Oc5ccccc5)cc4)nn32)CC1 [zanubrutinib]" readout="inhibition at 1 µM" experimental_result=-13
compound="FC(F)(F)c1ccc(CNc2ccc(Cc3c[nH]c4ncc(Cl)cc34)cn2)cn1 [pexidartinib]" readout="inhibition at 1 µM" experimental_result=-7
compound="CN1CCN(c2ccc(C(=O)Nc3n[nH]c4ccc(Cc5cc(F)cc(F)c5)cc34)c(NC3CCOCC3)c2)CC1 [entrectinib]" readout="inhibition at 1 µM" experimental_result=-7
compound="CCN1C(=O)N(c2c(F)c(OC)cc(OC)c2F)Cc2cnc3[nH]c(CN4CCOCC4)cc3c21 [pemigatinib]" readout="inhibition at 1 µM" experimental_result=-9
compound="COc1ccc(CN2C3CC2CN(c2ccc(-c4cc(OCC(C)(C)O)cn5ncc(C#N)c45)cn2)C3)cn1 [selpercatinib]" readout="inhibition at 1 µM" experimental_result=-5
compound="COc1cc2ncnc(Nc3ccc(F)c(Cl)c3)c2cc1NC(=O)/C=C/CN1CCCCC1 [dacomitinib]" readout="inhibition at 1 µM" experimental_result=-11
compound="CCn1c(=O)c(-c2cc(NC(=O)Nc3ccccc3)c(F)cc2Br)cc2cnc(NC)cc21 [ripretinib]" readout="inhibition at 1 µM" experimental_result=-16
compound="Cn1cc(-c2cc3c(N4CCN(c5ncc([C@@](C)(N)c6ccc(F)cc6)cn5)CC4)ncnn3c2)cn1 [avapritinib]" readout="inhibition at 1 µM" experimental_result=-20
compound="Cn1cnc2c(F)c(Nc3ccc(Br)cc3F)c(C(=O)NOCCO)cc21 [binimetinib]" readout="inhibition at 1 µM" experimental_result=-12
compound="CO[C@]1(C(=O)N[C@@H](C)c2ccc(-n3cc(F)cn3)nc2)CC[C@H](c2nc(C)cc(Nc3cc(C)[nH]n3)n2)CC1 [pralsetinib]" readout="inhibition at 1 µM" experimental_result=16

----------
- TESTED_TARGET: panel of 255 wild-type kinases (Homo sapiens, UniProt P29317)
- Sequence (P29317 24-976): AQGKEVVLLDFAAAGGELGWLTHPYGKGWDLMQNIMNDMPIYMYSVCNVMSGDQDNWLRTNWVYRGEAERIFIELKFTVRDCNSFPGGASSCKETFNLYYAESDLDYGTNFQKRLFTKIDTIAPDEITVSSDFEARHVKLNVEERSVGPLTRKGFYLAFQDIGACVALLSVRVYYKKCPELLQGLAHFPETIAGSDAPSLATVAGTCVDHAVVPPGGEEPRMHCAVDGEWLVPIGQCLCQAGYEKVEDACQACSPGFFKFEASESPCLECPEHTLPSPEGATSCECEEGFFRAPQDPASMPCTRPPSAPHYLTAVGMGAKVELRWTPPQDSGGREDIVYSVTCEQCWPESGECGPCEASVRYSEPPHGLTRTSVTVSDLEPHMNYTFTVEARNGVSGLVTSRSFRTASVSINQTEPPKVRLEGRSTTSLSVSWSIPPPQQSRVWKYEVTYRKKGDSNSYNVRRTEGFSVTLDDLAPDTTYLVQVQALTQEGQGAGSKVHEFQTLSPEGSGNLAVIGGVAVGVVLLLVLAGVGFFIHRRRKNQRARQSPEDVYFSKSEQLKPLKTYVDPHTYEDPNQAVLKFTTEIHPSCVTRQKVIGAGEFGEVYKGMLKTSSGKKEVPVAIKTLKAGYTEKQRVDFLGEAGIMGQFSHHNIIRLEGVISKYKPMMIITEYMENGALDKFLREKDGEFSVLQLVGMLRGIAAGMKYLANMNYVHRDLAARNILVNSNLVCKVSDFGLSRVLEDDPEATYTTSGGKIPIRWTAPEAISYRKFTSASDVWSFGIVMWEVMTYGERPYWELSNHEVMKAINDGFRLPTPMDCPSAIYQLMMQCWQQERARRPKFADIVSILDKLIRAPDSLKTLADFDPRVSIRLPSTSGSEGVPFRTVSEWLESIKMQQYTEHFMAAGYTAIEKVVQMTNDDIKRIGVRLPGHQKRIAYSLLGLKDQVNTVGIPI
- TEST_DESCRIPTION: Kinase panel profiling at 1 µmol/L (MSA or IMAP), percentage inhibition
- Type: biochemical
- EXPERIMENTAL_SETUP: kinase EPHA2; 1 µmol/L single concentration; read-out: %-inhibition at 1 µmol/L, EPHA2
READOUT: inhibition at 1 µM (%)

entry_smiles=C=CC(=O)N1CCC([C@@H]2CCNc3c(C(N)=O)c(-c4ccc(Oc5ccccc5)cc4)nn32)CC1 display_unit=% experimental_result=-1.86
entry_smiles=COC(=O)N[C@@H](C)CNc1nccc(-c2cn(C(C)C)nc2-c2cc(Cl)cc(NS(C)(=O)=O)c2F)n1 display_unit=% experimental_result=9
entry_smiles=Cc1cc(Nc2ncnc3ccc(NC4=NC(C)(C)CO4)cc23)ccc1Oc1ccn2ncnc2c1 display_unit=% experimental_result=2
entry_smiles=CN1CCN(c2ccc(C(=O)Nc3n[nH]c4ccc(Cc5cc(F)cc(F)c5)cc34)c(NC3CCOCC3)c2)CC1 display_unit=% experimental_result=37

----------
- TESTED_TARGET: panel of 255 wild-type kinases (Homo sapiens)
- TEST_DESCRIPTION: Kinase panel profiling at 1 µmol/L (MSA or IMAP), percentage inhibition
- Format: biochemical
- EXPERIMENTAL_SETUP: kinase TXK; 1 µmol/L single concentration; read-out: %-inhibition at 1 µmol/L, TXK
Quick reference: inhibition at 1 µM of the listed items.
READOUT: inhibition at 1 µM

compound="COC(=O)N[C@@H](C)CNc1nccc(-c2cn(C(C)C)nc2-c2cc(Cl)cc(NS(C)(=O)=O)c2F)n1 [encorafenib]" tested_target="panel of 255 wild-type kinases (Homo sapiens)" readout="inhibition at 1 µM" experimental_result=-3.43%
compound="CN1CCN(c2ccc(C(=O)Nc3n[nH]c4ccc(Cc5cc(F)cc(F)c5)cc34)c(NC3CCOCC3)c2)CC1 [entrectinib]" tested_target="panel of 255 wild-type kinases (Homo sapiens)" readout="inhibition at 1 µM" experimental_result=98%
compound="C[C@H]1Oc2cc(cnc2N)-c2c(nn(C)c2C#N)CN(C)C(=O)c2ccc(F)cc21 [lorlatinib]" tested_target="panel of 255 wild-type kinases (Homo sapiens)" readout="inhibition at 1 µM" experimental_result=3.52%
compound="Cn1cnc2c(F)c(Nc3ccc(Br)cc3Cl)c(C(=O)NOCCO)cc21 [selumetinib]" tested_target="panel of 255 wild-type kinases (Homo sapiens)" readout="inhibition at 1 µM" experimental_result=3.19%

----------
- TESTED_TARGET: panel of 255 wild-type kinases (Homo sapiens)
- TEST_DESCRIPTION: Kinase panel profiling at 1 µmol/L (MSA or IMAP), percentage inhibition
- Assay type: biochemical
- EXPERIMENTAL_SETUP: kinase FGFR1; 1 µmol/L single concentration; read-out: %-inhibition at 1 µmol/L, FGFR1
inhibition at 1 µM below 4% gives condition not met; inhibition at 1 µM at or above it gives condition met.

molecule="Cn1cnc2c(F)c(Nc3ccc(Br)cc3F)c(C(=O)NOCCO)cc21 [binimetinib]" category="condition not met"
molecule="C=CC(=O)N1CCC([C@@H]2CCNc3c(C(N)=O)c(-c4ccc(Oc5ccccc5)cc4)nn32)CC1 [zanubrutinib]" category="condition met"
molecule="CN1CCN(c2ccc(C(=O)Nc3n[nH]c4ccc(Cc5cc(F)cc(F)c5)cc34)c(NC3CCOCC3)c2)CC1 [entrectinib]" category="condition met"
molecule="COc1cc2ncnc(Nc3ccc(F)c(Cl)c3)c2cc1NC(=O)/C=C/CN1CCCCC1 [dacomitinib]" category="condition met"
molecule="COC(=O)N[C@@H](C)CNc1nccc(-c2cn(C(C)C)nc2-c2cc(Cl)cc(NS(C)(=O)=O)c2F)n1 [encorafenib]" category="condition met"
molecule="CCc1nc(C(N)=O)c(Nc2ccc(N3CCC(N4CCN(C)CC4)CC3)c(OC)c2)nc1NC1CCOCC1 [gilteritinib]" category="condition met"
molecule="C[C@H]1Oc2cc(cnc2N)-c2c(nn(C)c2C#N)CN(C)C(=O)c2ccc(F)cc21 [lorlatinib]" category="condition not met"

----------
- TESTED_TARGET: panel of 255 wild-type kinases (Homo sapiens, UniProt P53355)
- Sequence (P53355 whole entry): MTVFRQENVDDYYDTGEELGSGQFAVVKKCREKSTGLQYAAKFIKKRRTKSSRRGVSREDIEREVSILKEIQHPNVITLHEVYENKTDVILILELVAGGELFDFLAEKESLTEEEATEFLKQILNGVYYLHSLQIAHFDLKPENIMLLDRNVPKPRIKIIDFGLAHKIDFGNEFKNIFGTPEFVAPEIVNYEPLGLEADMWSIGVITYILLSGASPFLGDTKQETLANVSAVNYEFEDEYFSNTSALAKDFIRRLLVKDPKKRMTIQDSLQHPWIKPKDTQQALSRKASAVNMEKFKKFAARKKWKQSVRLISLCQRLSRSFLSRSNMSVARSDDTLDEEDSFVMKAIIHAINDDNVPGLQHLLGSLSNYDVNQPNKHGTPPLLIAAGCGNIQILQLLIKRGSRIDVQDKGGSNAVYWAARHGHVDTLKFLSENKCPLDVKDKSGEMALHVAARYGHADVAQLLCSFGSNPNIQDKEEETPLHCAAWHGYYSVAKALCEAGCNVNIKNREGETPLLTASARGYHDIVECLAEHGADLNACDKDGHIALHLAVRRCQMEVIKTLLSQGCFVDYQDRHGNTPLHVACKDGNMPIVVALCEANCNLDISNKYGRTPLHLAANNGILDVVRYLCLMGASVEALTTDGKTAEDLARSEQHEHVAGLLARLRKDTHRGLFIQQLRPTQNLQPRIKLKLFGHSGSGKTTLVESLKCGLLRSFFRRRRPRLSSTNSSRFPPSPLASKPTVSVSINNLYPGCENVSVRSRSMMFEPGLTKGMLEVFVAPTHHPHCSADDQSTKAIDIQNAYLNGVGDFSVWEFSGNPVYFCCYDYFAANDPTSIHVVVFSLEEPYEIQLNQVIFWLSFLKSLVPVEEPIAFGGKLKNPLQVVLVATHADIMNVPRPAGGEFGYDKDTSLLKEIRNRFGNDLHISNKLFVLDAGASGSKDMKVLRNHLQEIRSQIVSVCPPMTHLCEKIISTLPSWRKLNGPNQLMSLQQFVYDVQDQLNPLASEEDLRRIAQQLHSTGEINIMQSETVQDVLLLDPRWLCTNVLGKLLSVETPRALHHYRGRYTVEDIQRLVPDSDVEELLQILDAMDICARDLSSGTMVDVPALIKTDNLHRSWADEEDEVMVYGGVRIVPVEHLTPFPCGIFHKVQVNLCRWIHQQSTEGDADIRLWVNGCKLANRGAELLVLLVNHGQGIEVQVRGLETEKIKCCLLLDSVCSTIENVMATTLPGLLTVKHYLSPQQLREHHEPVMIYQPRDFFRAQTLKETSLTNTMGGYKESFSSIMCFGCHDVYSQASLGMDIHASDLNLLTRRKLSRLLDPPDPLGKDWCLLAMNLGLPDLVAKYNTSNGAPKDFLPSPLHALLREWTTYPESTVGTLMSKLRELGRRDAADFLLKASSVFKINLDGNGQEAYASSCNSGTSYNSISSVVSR
- TEST_DESCRIPTION: Kinase panel profiling at 1 µmol/L (MSA or IMAP), percentage inhibition
- Type: biochemical
- EXPERIMENTAL_SETUP: kinase DAPK1; 1 µmol/L single concentration; read-out: %-inhibition at 1 µmol/L, DAPK1
READOUT: inhibition at 1 µM (%)

entry_smiles=FC(F)(F)c1ccc(CNc2ccc(Cc3c[nH]c4ncc(Cl)cc34)cn2)cn1 tested_target="panel of 255 wild-type kinases (Homo sapiens, UniProt P53355)" readout="inhibition at 1 µM" experimental_result=-9
entry_smiles=C[C@H]1Oc2cc(cnc2N)-c2c(nn(C)c2C#N)CN(C)C(=O)c2ccc(F)cc21 tested_target="panel of 255 wild-type kinases (Homo sapiens, UniProt P53355)" readout="inhibition at 1 µM" experimental_result=6.55
entry_smiles=Cn1cnc2c(F)c(Nc3ccc(Br)cc3Cl)c(C(=O)NOCCO)cc21 tested_target="panel of 255 wild-type kinases (Homo sapiens, UniProt P53355)" readout="inhibition at 1 µM" experimental_result=2.59
entry_smiles=C[C@H](Nc1ncnc2nc[nH]c12)c1cc2cccc(Cl)c2c(=O)n1-c1ccccc1 tested_target="panel of 255 wild-type kinases (Homo sapiens, UniProt P53355)" readout="inhibition at 1 µM" experimental_result=-3.23
entry_smiles=CCn1c(=O)c(-c2cc(NC(=O)Nc3ccccc3)c(F)cc2Br)cc2cnc(NC)cc21 tested_target="panel of 255 wild-type kinases (Homo sapiens, UniProt P53355)" readout="inhibition at 1 µM" experimental_result=-10
entry_smiles=Cn1cnc2c(F)c(Nc3ccc(Br)cc3F)c(C(=O)NOCCO)cc21 tested_target="panel of 255 wild-type kinases (Homo sapiens, UniProt P53355)" readout="inhibition at 1 µM" experimental_result=1.69
entry_smiles=CN1CCN(c2ccc(C(=O)Nc3n[nH]c4ccc(Cc5cc(F)cc(F)c5)cc34)c(NC3CCOCC3)c2)CC1 tested_target="panel of 255 wild-type kinases (Homo sapiens, UniProt P53355)" readout="inhibition at 1 µM" experimental_result=16
entry_smiles=CO[C@]1(C(=O)N[C@@H](C)c2ccc(-n3cc(F)cn3)nc2)CC[C@H](c2nc(C)cc(Nc3cc(C)[nH]n3)n2)CC1 tested_target="panel of 255 wild-type kinases (Homo sapiens, UniProt P53355)" readout="inhibition at 1 µM" experimental_result=53
